Measured TGI values are reported for all entries that follow.
- System: NCI-H460 lung
- Method Summary: NCI tumour cell line growth inhibition, 48 h

Chem Smiles	TGI
Cc1nc2ccc(N=Nc3c(O)ccc4ccccc34)cc2[nH]1	> 87.7 µM
CCOC(=O)NC(=O)c1cn(CCCCCCCCCCC(=O)N2CCN(CCn3cc(C(=O)NC(=O)OCC)c(=O)[nH]c3=O)CC2)c(=O)[nH]c1=O	> 100 µM
CCOP(=O)(OCC)/C(=C/c1ccccc1)CC(C)=O	> 100 µM

State, in one line, measured TGI of "C/C(=C\CNc1ncnc2nc(Cl)[nH]c12)CO"
> 100 µM
